- System: Pseudomonas aeruginosa ATCC 27853
- test.summary: Test A: MIC-based assay for potentiation of antibiotics that are known efflux pump substrates
- Format: cell-based
- run.conditions: antibiotic MIC (e.g., clarithromycin and levofloxacin) in presence vs absence of the EPI compound; EPI at 1.6 to 12.5 g/mL in CAMH broth, 24 hours at 37° C.
assay.endpoint: Enhanced Activity in P. aeruginosa

Problem: Tell me the measured Enhanced Activity in P. aeruginosa of Cl.Cl.Cl.NCCC[C@H](N)CNCc1cc(C(F)(F)F)cc(C(F)(F)F)c1 [Example 1] , please.
Solution: <2x

Problem: Tell me the measured Enhanced Activity in P. aeruginosa of CC(N)CC[C@H](N)CNCc1cc(C(F)(F)F)cc(C(F)(F)F)c1.Cl.Cl.Cl (stereo partly drawn) [Example 4] , please.
Solution: <2x

Problem: Tell me the measured Enhanced Activity in P. aeruginosa of Cl.Cl.NCCC[C@@H](N)COc1cc(-c2cccc(F)c2)cc(-c2cccc(F)c2)c1 [Example 18] , please.
Solution: ≥1x

Problem: Tell me the measured Enhanced Activity in P. aeruginosa of CC(C)C(N)CC[C@H](N)CNCc1cc(-c2ccc(F)cc2)cc(-c2ccc(F)cc2)c1.Cl.Cl.Cl (stereo partly drawn) [Example 5] , please.
Solution: ≥2x

Problem: Tell me the measured Enhanced Activity in P. aeruginosa of Cl.Cl.Cl.NCCC[C@H](N)CNCCc1cc(C(F)(F)F)cc(C(F)(F)F)c1 [Example 3] , please.
Solution: ≥2x

Problem: Tell me the measured Enhanced Activity in P. aeruginosa of COc1ccc(-c2cc(OC[C@@H](N)CCCN)cc(-c3ccc(OC)cc3)c2)cc1.Cl.Cl [Example 17] , please.
Solution: ≥2x

Problem: Tell me the measured Enhanced Activity in P. aeruginosa of NCCC[C@H](N)CNCc1cc(-c2ccccc2)cc(-c2ccccc2)c1 [Example 15] , please.
Solution: ≥16x

Problem: Tell me the measured Enhanced Activity in P. aeruginosa of CC(C)(CNC[C@@H](N)CCCN)c1cc(-c2ccc(F)cc2)cc(-c2ccc(F)cc2)c1.Cl.Cl.Cl [Example 9] , please.
Solution: ≥2x

Problem: Tell me the measured Enhanced Activity in P. aeruginosa of Cl.Cl.NCCC[C@H](N)COc1cc(-c2ccc(F)cc2)cc(-c2ccc(F)cc2)c1 [Example 13] , please.
Solution: <2x

Problem: Tell me the measured Enhanced Activity in P. aeruginosa of Cl.Cl.NCCC[C@@H](N)COc1cc(-c2ccc(F)cc2)cc(-c2ccc(F)cc2)c1 [Example 11] , please.
Solution: ≥16x

Problem: Tell me the measured Enhanced Activity in P. aeruginosa of Cl.Cl.NC[C@H](N)CCc1cc(-c2ccc(F)cc2)cc(-c2ccc(F)cc2)c1 [Example 12] , please.
Solution: <2x

Problem: Tell me the measured Enhanced Activity in P. aeruginosa of Cl.Cl.Cl.NCCN(CCN)Cc1cc(C(F)(F)F)cc(C(F)(F)F)c1 [Example 8] , please.
Solution: <2x

Problem: Tell me the measured Enhanced Activity in P. aeruginosa of Cl.Cl.Cl.NCCC[C@H](N)CNCCc1cc(-c2ccc(F)cc2)cc(-c2ccc(F)cc2)c1 [Example 10] , please.
Solution: ≥64x

Problem: Tell me the measured Enhanced Activity in P. aeruginosa of Cl.Cl.Cl.NCCC[C@H](N)CNCc1cc(-c2ccc(F)cc2)cc(-c2ccc(F)cc2)c1 [Example 6] , please.
Solution: ≥16x

Problem: Tell me the measured Enhanced Activity in P. aeruginosa of CC(C)(C)c1cc(CNC[C@@H](N)CCCN)cc(C(C)(C)C)c1.Cl.Cl.Cl [Example 2] , please.
Solution: <2x

----------
- Test system: Pseudomonas aeruginosa ATCC 27853
- test.summary: Test A: MIC-based assay for potentiation of antibiotics that are known efflux pump substrates
- Type: cell-based
- run.conditions: antibiotic MIC (e.g., clarithromycin and levofloxacin) in presence vs absence of the EPI compound; EPI at 1.6 to 12.5 g/mL in CAMH broth, 24 hours at 37° C.
assay.endpoint: Enhanced Activity in P. aeruginosa

Problem: Tell me the measured Enhanced Activity in P. aeruginosa of CC(C)C(N)CC[C@H](N)COc1cc(-c2ccc(F)cc2)cc(-c2ccc(F)cc2)c1.Cl.Cl (stereo partly shown) , please.
Solution: <2x

Problem: Tell me the measured Enhanced Activity in P. aeruginosa of `Cl.Cl.Cl.NCCN(CCN)Cc1cc(-c2ccc(F)cc2)cc(-c2ccc(F)cc2)c1` , please.
Solution: ≥16x

Problem: Tell me the measured Enhanced Activity in P. aeruginosa of `Cl.Cl.NCCC[C@H](N)COc1cc(-c2ccc(C(F)(F)F)cc2)cc(-c2ccc(C(F)(F)F)cc2)c1` , please.
Solution: ≥2x

Problem: Tell me the measured Enhanced Activity in P. aeruginosa of `Cl.Cl.NCCC[C@@H](N)COc1cc(-c2ccc(F)c(F)c2)cc(-c2ccc(F)c(F)c2)c1` , please.
Solution: ≥1x
